These entries and their values trace back to paper PMC6409085.

# EXPERIMENTAL TARGET: SfurOBP11 (Sogatella furcifera, UniProt V5T6E3)
# Sequence (V5T6E3 entry or part of it): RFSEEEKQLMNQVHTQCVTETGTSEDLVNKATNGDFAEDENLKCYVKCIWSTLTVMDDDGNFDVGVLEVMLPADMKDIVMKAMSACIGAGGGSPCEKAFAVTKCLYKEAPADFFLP
# ASSAY NOTES: biochemical
# Format: binding
# CONDITION LABEL: ligand concentration 10, replicate 1
As shown below, each of these compounds has a reported Fluorescence intensity, fluorescence competitive binding assay, OBP11 value.
ASSAY ENDPOINT: Fluorescence intensity, fluorescence competitive binding assay, OBP11

INSERT INTO results (compound, result) VALUES
  ('C=C(C)C1CC=C(C)CC1 (single isomer, unassigned; (+)) [(+)-limonene]', 19564),
  ('CCCCCCCCCCCCCCCCCC', 29221),
  ('c1ccc2ccccc2c1', 30839);
